Target: T1, Pellino 1 FHA (PELI1 residues 13-273) (human, UniProt Q96FA3 13-273)
T1 construct: Cloned into pGEX-6P1; same preparation for ITC and crystallography by the methods; also called PELI1 (13–273); N-terminal PELI1 fragment; source: E. coli BL21 (DE3), purified (Glutathione Sepharose, 3C cleavage, gel filtration); not shown: GST, N-terminal, cleaved
T1 sequence (looked up): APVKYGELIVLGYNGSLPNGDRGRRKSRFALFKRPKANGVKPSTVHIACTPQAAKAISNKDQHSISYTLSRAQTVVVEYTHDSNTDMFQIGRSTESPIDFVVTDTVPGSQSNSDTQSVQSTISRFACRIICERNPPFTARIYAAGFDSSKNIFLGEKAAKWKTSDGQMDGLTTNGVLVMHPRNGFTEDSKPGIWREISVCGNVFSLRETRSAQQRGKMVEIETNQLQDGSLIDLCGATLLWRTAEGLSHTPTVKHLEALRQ
Test: ITC; peptide in the syringe (typically 160 μM), protein in the cell (16 μM); 25 mM HEPES pH 7.0, 200 mM NaCl, 1 mM TCEP; single-site binding model
Details: both partners purified
Square brackets hold non-standard residues; d marks the D form. pT = C[C@@H](OP(=O)(O)O)[C@H](N)C(=O)O
quantity: dH (kcal/mol)
Your answer is read as kcal/mol, so omit the unit and give the number.

Per the records, this binder ( Ac-AYDLQA[pT]QCFA-NH2 (SMILES CC(=O)N[C@@H](C)C(=O)N[C@@H](Cc1ccc(O)cc1)C(=O)N[C@@H](CC(=O)O)C(=O)N[C@@H](CC(C)C)C(=O)N[C@@H](CCC(N)=O)C(=O)N[C@@H](C)C(=O)N[C@H](C(=O)N[C@@H](CCC(N)=O)C(=O)N[C@@H](CS)C(=O)N[C@@H](Cc1ccccc1)C(=O)N[C@@H](C)C(N)=O)[C@@H](C)OP(=O)(O)O, human MDC1, stretch around T699 with alanine at pT+4; source: synthetic peptide) [MDC1-pT699 phosphopeptide for ITC (AYDLQApTQCFA)] ) has dH equal to -18.5

Reference for the values: paper PMC11884936
